- TARGET UNDER TEST: PcrV of P. aeruginosa strain PA103 (on TTSS-induced bacteria) (Pseudomonas aeruginosa strain PA103); also: test concentration or dose not given here
- ASSAY COMMENT: cell-based or functional assay
REPORTED ENDPOINT: cytotox assay (% inhibition), P3X63, PA103

Q: Quick one: cytotox assay (% inhibition), P3X63, PA103 for Nanobody 14B10 (VHH) VHH: EVQLVESGGGLVQPGGSLRLSCAASGRIFSINNMGWYHQAPGKQRELVATITMNGITTYADSVKGRFTISRDNAKNTVYLQMNSLKPEDTAVYYCSCWVRSSGGDPYRDYWGQGTQVTVSS ?
A: 20%

Q: Quick one: cytotox assay (% inhibition), P3X63, PA103 for Nanobody 2G09 (VHH) VHH: EVQLVESGGGLVQPGGSLRLSCAASGSFGDNYELYAMTWFRQAPGERRDFVASVTGDGSTSYADSVKDRFTISRDNAKKLMYLQMNSLKPEDTAVYYCRLLNYWGQGTLVTVSS ?
A: 45%

Q: Quick one: cytotox assay (% inhibition), P3X63, PA103 for Nanobody 5E02 (VHH) VHH: EVQLVESGGGLVQPGGSLRLSCAASGITLDSIAICWFRQAPGKEREGVSCSRGSDGSTYYADSVKGRFTISRVNAKNTVYLQMNSLKPEDTAVYYCAAAPSIFYSGGYFPSGMDYWGKGTQVTVSS ?
A: 71%

Q: Quick one: cytotox assay (% inhibition), P3X63, PA103 for Nanobody 7E09 (VHH, also called 07E09) VHH: EVQLVESGGGLVQAGGSLRLSCAASGRTFSSYIMGWFRQAPGKAREFVADITWGQRPYYADSVKGRFTISRDNAKNTVYLEMNSLKPEDTAVYYCAADLGVVIREEHAYWGQGTLVTVSS ?
A: 16%

Q: Quick one: cytotox assay (% inhibition), P3X63, PA103 for Nanobody 3E10 (VHH) VHH: EVQLVESGGGLVQAGGSLRLSCTASGHTFSSYTMGWFRQAPGKEREFVAAMTRSGFNTHYSDSVKGRFTISRDNTSRDNTKITMALQMNSLKPEDTAVYYCTTGRGLTSYVANFWGQGTQVTVSS ?
A: 25%

Q: Quick one: cytotox assay (% inhibition), P3X63, PA103 for Nanobody 10C05 (VHH) VHH: EVQLVESGGGLVQPGGSLRLSCAASGSIFSINTMGWYRQAPGKQRDLVASITMNQVPNYADSVQGRFTISRDNVRNTVHLQMNAVKPEDTADYFCNAWVRSSGASPYTNYWGQGTQVTVSS ?
A: 25%

Q: Quick one: cytotox assay (% inhibition), P3X63, PA103 for Nanobody 4G10 (VHH) VHH: EVQLVESGGGLVQAGGSLRLSCVISEDGVRNYDMGWFRQAPGKEREFVATINWSGGSTNYADSVKGRFTVSRDNAKNTMYLQMDSLKPEDTAVYYCVAAGFYNNYLRTAPNDWNDWGQGTQVTVSS ?
A: 81%

Q: Quick one: cytotox assay (% inhibition), P3X63, PA103 for Nanobody 7C10 (VHH) VHH: EVQLVESGGGLVQAGGSLRLSCTASGRTLSSYTMGWFRQAPGTEREFVAAMTRSGFNTYYADSVKGRFTISRDSTENTMALQMSSLKPEDTAVYYCTAGRGLTSYRADYWGQGTLVTVSS ?
A: 58%

Q: Quick one: cytotox assay (% inhibition), P3X63, PA103 for Nanobody 2B10 (VHH, also called 02B10) VHH: EVQLVESGGGLVQPGGSLRLSCAASGSIFSINNMGWYRQAPGKQRELVTVVTSNLITTYADSVKGRFTISRDNAKNTVYLQMNSLKPEDTAVYYCNAWARSVGSVPYSQFWGQGTLVTVSS ?
A: 38%

Q: Quick one: cytotox assay (% inhibition), P3X63, PA103 for Nanobody 11B09 (VHH) VHH: EVQLVESGGGLVQAGGSLRLSCAASRLTFNHYNMGWFRQAPGKERERVAEVTWSGDKIYYVDSVKGRFTISRDNTPNPVYLYLQMNSLKPEDTAVYYCATAPRGLPYANGYWGQGTQVTVSS ?
A: 37%

Q: Quick one: cytotox assay (% inhibition), P3X63, PA103 for Nanobody 14E10 (VHH) VHH: EVQLVESGGGLVQPGGSLRLSCAASGRIFSINTMGWYRQAPGKQRELVAGVTINAITNYADSVKGRFTISRDNAKNTVWLQMNSLKPEDTAVYYCHAWARSSGSAPYSQNWGQGTQVTVSS ?
A: 22%

Q: Quick one: cytotox assay (% inhibition), P3X63, PA103 for Nanobody 4C03 (VHH) VHH: EVQLVESGGGLVQAGGSLRLSCVISASTVRNYDMGWFRQAPGKEREFVAAIDWSGGSTRYADSVKGRFTVSRDNAKNTVYLQMNSLKPEDTAVYYCVAAGFYNNYLRTAPNDWNYWGQGTLVTVSS ?
A: 22%

Q: Quick one: cytotox assay (% inhibition), P3X63, PA103 for Nanobody 1E11 (VHH, also called 01E11) VHH: EVQLVESGGGLVQPGGSLRLSCAASGSTRSVNPMAWFRQAPGRQREWVATISRSGYATYADSVKGRFTISGDNAKSSVYLQMNSLKPEDTAVYYCVTGTYWGQGTLVTVSS ?
A: 33%

Q: Quick one: cytotox assay (% inhibition), P3X63, PA103 for Nanobody 3B11 (VHH) VHH: EVQLVESGGGLVQAGGSLRLSCAASGFTFDDYVIGWFRQAPGKEREGVSCISRLDGRTYYTDSVKGRFTISSDNAKNTVYLQMNSLKPEDTAVYYCALEPRYTGDYYPVHPELYDYWGQGTQVTVSS ?
A: 26%

Q: Quick one: cytotox assay (% inhibition), P3X63, PA103 for Nanobody 12B02 (VHH) VHH: EVQLVESGGGLVQPGGSLRLSCAASGFSLGVFAIGWFRQAPGKEREGVSCIDSSDGRTTYADSVKGRFTISRDNAKNTVYLQMNSLKPEDTAVYYCATDIETDVCSGAGWGFWGQGTQVTVSS ?
A: 14%
